Values compiled from PubChem BioAssay AID2060909.

System: 362531-283-R-J2-PDC complex spheroid viability
Procedure summary: Anticancer human tumor 362531-283-R-J2-PDC patient-derived colon adenocarcinoma cell line growth inhibition [RAS]
Stated conditions: second compound 0.003 µM; first compound 0.1 µM; active compounds read low

[
  {
    "Compound": "CC(Nc1ccc2c(c1)OCCn1cc(N3C(=O)OCC3C(F)F)nc1-2)C(N)=O (centres undefined) + CCn1c(-c2cc(N3CCN(C)CC3)cnc2C(C)OC)c2c3cc(ccc31)-c1csc(n1)CC(NC(=O)C1CC1C)C(=O)N1CCCC(N1)C(=O)OCC(C)(C)C2",
    "Target or system": "362531-283-R-J2-PDC complex spheroid viability",
    "viability, T/C": "98.8%"
  },
  {
    "Compound": "Nc1ccn(C2OC(CO)C(O)C2(F)F)c(=O)n1 (centres undefined) + CCn1c(-c2cccnc2C(C)OC)c2c3cc(ccc31)N1CCOC(CC(NC(=O)C(C(C)C)N(C)C(=O)C3(F)CCN(C(=O)C#CC(C)(C)N(C)C)CC3)C(=O)N3CCCC(N3)C(=O)OCC(C)(C)C2)C1",
    "Target or system": "362531-283-R-J2-PDC complex spheroid viability",
    "viability, T/C": "68.5%"
  },
  {
    "Compound": "NC1c2ccccc2OC12CCN(c1cnc3c(N4CCCc5ncccc54)n[nH]c3n1)CC2 (centres undefined) + CCn1c(-c2cccnc2C(C)OC)c2c3cc(ccc31)N1CCOC(CC(NC(=O)C(C(C)C)N(C)C(=O)C3(F)CCN(C(=O)C#CC(C)(C)N(C)C)CC3)C(=O)N3CCCC(N3)C(=O)OCC(C)(C)C2)C1",
    "Target or system": "362531-283-R-J2-PDC complex spheroid viability",
    "viability, T/C": "87.5%"
  },
  {
    "Compound": "CCN1CCN(Cc2ccc(Nc3ncc(F)c(-c4cc(F)c5nc(C)n(C(C)C)c5c4)n3)nc2)CC1 + CCn1c(-c2cc(N3CCN(C)CC3)cnc2C(C)OC)c2c3cc(ccc31)-c1csc(n1)CC(NC(=O)C1CC1C)C(=O)N1CCCC(N1)C(=O)OCC(C)(C)C2",
    "Target or system": "362531-283-R-J2-PDC complex spheroid viability",
    "viability, T/C": "87.8%"
  }
]

---

Test system: 362531-283-R-J2-PDC complex spheroid viability
Procedure summary: Anticancer human tumor 362531-283-R-J2-PDC cell line growth inhibition [RAS];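 note: spheroids exposed to the agents for 7 days before readout; luminescence viability as percent of DMSO vehicle control wells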
Stated conditions: second compound 3.16 µM; first compound 1 µM; active compounds read low

[
  {
    "Compound": "NC1c2ccccc2OC12CCN(c1cnc3c(N4CCCc5ncccc54)n[nH]c3n1)CC2 (stereo unspecified) + C#Cc1c(F)ccc2cc(O)cc(-c3ncc4c(N5CC6CCC(C5)N6)nc(OCC56CCCN5CC(F)C6)nc4c3F)c12",
    "viability, T/C, %": 6.45
  },
  {
    "Compound": "CC(=O)OC12COC1CC(O)C1(C)C(=O)C(O)C3=C(C)C(OC(=O)C(O)C(NC(=O)OC(C)(C)C)c4ccccc4)CC(O)(C(OC(=O)c4ccccc4)C21)C3(C)C (stereo unspecified) + C#Cc1c(F)ccc2cc(O)cc(-c3ncc4c(N5CC6CCC(C5)N6)nc(OCC56CCCN5CC(F)C6)nc4c3F)c12",
    "viability, T/C, %": 15
  },
  {
    "Compound": "CC(C)NCC(C(=O)N1CCN(c2ncnc3c2C(C)CC3O)CC1)c1ccc(Cl)cc1 (stereo unspecified) + C#Cc1c(F)ccc2cc(O)cc(-c3ncc4c(N5CC6CCC(C5)N6)nc(OCC56CCCN5CC(F)C6)nc4c3F)c12",
    "viability, T/C, %": 87
  },
  {
    "Compound": "C=CC(=O)Nc1cc(Nc2nccc(-c3cn(C)c4ccccc34)n2)c(OC)cc1N(C)CCN(C)C + C#Cc1c(F)ccc2cc(O)cc(-c3ncc4c(N5CC6CCC(C5)N6)nc(OCC56CCCN5CC(F)C6)nc4c3F)c12",
    "viability, T/C, %": 13.8
  },
  {
    "Compound": "Nc1ccn(C2OC(CO)C(O)C2(F)F)c(=O)n1 (stereo unspecified) + C#Cc1c(F)ccc2cc(O)cc(-c3ncc4c(N5CC6CCC(C5)N6)nc(OCC56CCCN5CC(F)C6)nc4c3F)c12",
    "viability, T/C, %": 12.8
  },
  {
    "Compound": "CC1(O)CCCC1n1c(=O)c(C(F)F)cc2cnc(NC3CCN(S(C)(=O)=O)CC3)nc21 (stereo unspecified) + C#Cc1c(F)ccc2cc(O)cc(-c3ncc4c(N5CC6CCC(C5)N6)nc(OCC56CCCN5CC(F)C6)nc4c3F)c12",
    "viability, T/C, %": 54.7
  },
  {
    "Compound": "CC(Nc1ccc2c(c1)OCCn1cc(N3C(=O)OCC3C(F)F)nc1-2)C(N)=O (stereo unspecified) + C#Cc1c(F)ccc2cc(O)cc(-c3ncc4c(N5CC6CCC(C5)N6)nc(OCC56CCCN5CC(F)C6)nc4c3F)c12",
    "viability, T/C, %": 7.66
  },
  {
    "Compound": "Cc1nc(N2CCC3(CC2)COC(C)C3N)c(CO)nc1Sc1ccnc(N)c1Cl (stereo unspecified) + C#Cc1c(F)ccc2cc(O)cc(-c3ncc4c(N5CC6CCC(C5)N6)nc(OCC56CCCN5CC(F)C6)nc4c3F)c12",
    "viability, T/C, %": 11
  },
  {
    "Compound": "CCN1CCN(Cc2ccc(Nc3ncc(F)c(-c4cc(F)c5nc(C)n(C(C)C)c5c4)n3)nc2)CC1 + C#Cc1c(F)ccc2cc(O)cc(-c3ncc4c(N5CC6CCC(C5)N6)nc(OCC56CCCN5CC(F)C6)nc4c3F)c12",
    "viability, T/C, %": 17
  },
  {
    "Compound": "O=C(c1ccc(F)c(F)c1Nc1ccc(I)cc1F)N1CC(O)([C@@H]2CCCCN2)C1 + C#Cc1c(F)ccc2cc(O)cc(-c3ncc4c(N5CC6CCC(C5)N6)nc(OCC56CCCN5CC(F)C6)nc4c3F)c12",
    "viability, T/C, %": 1.7
  },
  {
    "Compound": "CCC(CC)c1cc(NC2CCC(N)C2)n2nccc2n1 (stereo unspecified) + C#Cc1c(F)ccc2cc(O)cc(-c3ncc4c(N5CC6CCC(C5)N6)nc(OCC56CCCN5CC(F)C6)nc4c3F)c12",
    "viability, T/C, %": 79.2
  }
]
